Target: human cyclophilin B (Homo sapiens, UniProt P23284)
Sequence (P23284 34-216): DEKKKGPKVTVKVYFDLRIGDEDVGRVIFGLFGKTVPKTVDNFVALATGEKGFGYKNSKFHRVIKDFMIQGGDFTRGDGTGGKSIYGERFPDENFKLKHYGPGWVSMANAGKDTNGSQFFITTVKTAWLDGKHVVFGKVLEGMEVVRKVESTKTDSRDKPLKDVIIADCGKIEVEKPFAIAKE
Assay: Peptidylprolyl isomerase (PPIase) activity inhibition assay
Format: biochemical
Conditions: 10 μM compound; 10 nmol Cyp B, preincubated at 4° C. for 15 minutes; test peptide Suc-Ala-Ala-Pro-Phe-Nan
test_readout: inhibition at 10 µM (%)

Examples with answers:
molecule	inhibition at 10 µM [%]
COc1ccc(S(=O)(=O)n2c3ccc(OC)cc3c(=O)n2Cc2cc([N+](=O)[O-])ccc2O)cc1	70
CSc1ccc2c(c1)c(=O)n(Cc1cc([N+](=O)[O-])ccc1O)n2Cc1ccc(Cl)c(Cl)c1 [Example 26, hydrate]	98
COc1ccc2c(c1)c(=O)n(Cc1cc([N+](=O)[O-])ccc1O)n2S(=O)(=O)c1ccc(F)cc1	67
COc1ccc2c(c1)c(=O)n(Cc1cc([N+](=O)[O-])ccc1O)n2S(=O)(=O)c1ccc(OC(F)(F)F)cc1	93

(1) COc1ccc2c(c1)c(=O)n(Cc1cc([N+](=O)[O-])ccc1O)n2S(=O)(=O)c1ccc(Cl)cc1
(2) COc1ccc2c(c1)c(=O)n(Cc1cc([N+](=O)[O-])ccc1O)n2S(=O)(=O)c1ccc(C)cc1
Higher inhibition at 10 µM: 1 or 2 ? # reply format: chosen label 1
